measurement name: pIC50
pIC50 is a log-scale quantity: -log10 of the concentration expressed in molar.

Prompt: Fill in pIC50 for CN1C2COCC1CC(OC(=O)c1c[nH]c3ccccc13)C2 (centres unmarked) [Reference 7, reference compound] tested with nicotinic α-7 receptor (Homo sapiens (Human)).
Sequence (P36544 23-502): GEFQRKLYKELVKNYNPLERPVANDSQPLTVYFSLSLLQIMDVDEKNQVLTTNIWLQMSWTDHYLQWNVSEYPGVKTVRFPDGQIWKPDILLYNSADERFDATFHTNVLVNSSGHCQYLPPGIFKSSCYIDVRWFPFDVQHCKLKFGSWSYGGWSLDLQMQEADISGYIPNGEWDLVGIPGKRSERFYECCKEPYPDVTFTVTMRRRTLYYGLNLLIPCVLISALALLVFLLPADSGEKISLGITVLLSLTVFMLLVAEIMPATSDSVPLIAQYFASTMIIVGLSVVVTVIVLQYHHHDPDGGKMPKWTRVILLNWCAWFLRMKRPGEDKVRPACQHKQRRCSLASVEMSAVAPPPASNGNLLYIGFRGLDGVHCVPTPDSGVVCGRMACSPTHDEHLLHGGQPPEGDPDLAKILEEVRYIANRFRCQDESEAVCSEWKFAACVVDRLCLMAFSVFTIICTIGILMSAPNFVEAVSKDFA
Response: 5.78

====

system name: 5-HT3a receptor (Homo sapiens (Human), UniProt P46098)
Sequence (P46098 24-478): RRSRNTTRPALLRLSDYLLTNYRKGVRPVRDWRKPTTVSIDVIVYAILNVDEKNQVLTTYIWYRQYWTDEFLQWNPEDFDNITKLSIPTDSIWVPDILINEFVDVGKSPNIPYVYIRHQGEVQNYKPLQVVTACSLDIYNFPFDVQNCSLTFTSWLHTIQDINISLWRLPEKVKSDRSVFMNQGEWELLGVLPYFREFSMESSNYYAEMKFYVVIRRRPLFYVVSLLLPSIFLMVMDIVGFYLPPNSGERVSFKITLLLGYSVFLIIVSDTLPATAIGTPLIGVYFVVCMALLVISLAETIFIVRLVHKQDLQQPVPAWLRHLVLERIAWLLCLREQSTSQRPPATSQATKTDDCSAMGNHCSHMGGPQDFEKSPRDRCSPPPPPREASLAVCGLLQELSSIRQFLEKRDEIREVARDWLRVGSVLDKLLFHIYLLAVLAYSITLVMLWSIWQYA
assay: Inhibition of Ca flux activity of 5-HT3 in vitro assay
Assay type: cell-based
condition notes: approximate IC50; calcium flux, 5-HT3a expressed in HEK-293T cells, 5HT 216 nM; read-out: IC50
Counter-ions that a name gives are not always drawn.
measurement name: pIC50
pIC50 is a log-scale quantity: -log10 of the concentration expressed in molar.

Prompt: Input "CN1[C@@H]2COC[C@H]1C[C@@H](NC(=O)c1cn(-c3cccnc3)c3ncc(F)cc13)C2" , output reported pIC50.
Response: 9.14

Prompt: Input CN1[C@@H]2COC[C@H]1C[C@@H](NC(=O)c1cn(-c3ccccn3)c3ccccc13)C2 [Compound 8] , output reported pIC50.
Response: 9.09

Prompt: Input "Cn1cc(-n2cc(C(=O)N[C@H]3C[C@H]4COC[C@@H](C3)N4)c3ccccc32)cn1" , output reported pIC50.
Response: 8.69

Prompt: Input N#Cc1cc(-n2cc(C(=O)O[C@H]3C[C@H]4COC[C@@H](C3)N4)c3ccccc32)ccn1 [Compound 19, trifluoroacetic acid salt] , output reported pIC50.
Response: 8.43

Prompt: Input CN1[C@@H]2COC[C@H]1C[C@@H](NC(=O)c1cn(-c3ccnn3C)c3ccccc13)C2 [Compound 23, trifluoroacetic acid salt] , output reported pIC50.
Response: 9.00

Prompt: Input "O=C(O[C@H]1C[C@H]2COC[C@@H](C1)N2)c1cn(-c2cccnc2)c2ccccc12" , output reported pIC50.
Response: 9.21

Prompt: Input CN1[C@@H]2COC[C@H]1C[C@@H](NC(=O)c1nn(-c3ccccn3)c3ccccc13)C2 [Compound 14, trifluoroacetic acid salt] , output reported pIC50.
Response: 8.87

====

Provide the recorded pIC50 for the entries that follow.
system name: UniProt P46098
assay: Inhibition of Ca flux activity of 5-HT3 in vitro assay
Type: cell-based
condition notes: approximate IC50; calcium flux, 5-HT3a expressed in HEK-293T cells, 5HT 216 nM; read-out: IC50
Structures can show the parent of a compound that is named as a salt.
pIC50 is a log-scale quantity: -log10 of the concentration expressed in molar.

Prompt: Input Cc1ccncc1-n1cc(C(=O)N[C@H]2C[C@H]3COC[C@@H](C2)N3C)c2ccccc21 [Compound 21, trifluoroacetic acid salt] , output reported pIC50.
Response: 8.96

Prompt: Input CN1[C@@H]2COC[C@H]1C[C@@H](NC(=O)c1cn(-c3ccccn3)c3ccccc13)C2 [Compound 3] , output reported pIC50.
Response: 9.02

Prompt: Input CN1[C@@H]2COC[C@H]1CC(NC(=O)c1cn(-c3ccncc3)c3ccccc13)C2 (stereo partly shown) , output reported pIC50.
Response: 9.16

Prompt: Input "CN1[C@@H]2COC[C@H]1C[C@@H](NC(=O)c1cn(-c3cccnc3)c3ncccc13)C2" , output reported pIC50.
Response: 9.22

====

system name: UniProt P46098
assay: Inhibition of Ca flux activity of 5-HT3 in vitro assay
Format: cell-based
condition notes: approximate IC50; calcium flux, 5-HT3a expressed in HEK-293T cells, 5HT 216 nM; read-out: IC50
Where a name gives a salt, the structure may show the parent alone.
# Satisfied = IC50 below 0.9 nM (exclusive); Not satisfied = IC50 at/above 0.9 nM

Prompt: Bench note: check whether "CN1[C@@H]2COC[C@H]1C[C@@H](NC(=O)c1cn(-c3cnn(C(F)F)c3)c3ccccc13)C2" shows IC50 below 0.9 nM
Response: Not satisfied

Prompt: Bench note: check whether Cn1ccc(-n2cc(C(=O)O[C@H]3C[C@H]4COC[C@@H](C3)N4)c3ccccc32)n1 [Compound 16, trifluoroacetic acid salt] shows IC50 below 0.9 nM
Response: Not satisfied

Prompt: Bench note: check whether "CN1[C@@H]2COC[C@H]1C[C@@H](NC(=O)c1cn(-c3cccnc3)c3ccccc13)C2" shows IC50 below 0.9 nM
Response: Satisfied

Prompt: Bench note: check whether CN1[C@@H]2COC[C@H]1C[C@@H](OC(=O)c1cn(-c3cnn(CCF)c3)c3ccccc13)C2 [Compound 18, trifluoroacetic acid salt] shows IC50 below 0.9 nM
Response: Not satisfied

Prompt: Bench note: check whether CN1[C@@H]2COC[C@H]1CC(NC(=O)c1cn(-c3cccnc3)c3ccccc13)C2 (some centres unmarked) shows IC50 below 0.9 nM
Response: Not satisfied

Prompt: Bench note: check whether "O=C(N[C@H]1C[C@H]2COC[C@@H](C1)N2)c1cn(-c2cn[nH]c2)c2ccccc12" shows IC50 below 0.9 nM
Response: Satisfied

Prompt: Bench note: check whether "Cc1ncccc1-n1cc(C(=O)N[C@H]2C[C@H]3COC[C@@H](C2)N3C)c2ccccc21" shows IC50 below 0.9 nM
Response: Not satisfied

Prompt: Bench note: check whether "CCN1[C@@H]2COC[C@H]1C[C@@H](NC(=O)c1cn(-c3cnn(C)c3)c3ccccc13)C2" shows IC50 below 0.9 nM
Response: Not satisfied

Prompt: Bench note: check whether "CN1[C@@H]2COC[C@H]1C[C@@H](NC(=O)c1cn(-c3ccccn3)c3ncccc13)C2" shows IC50 below 0.9 nM
Response: Satisfied

Prompt: Bench note: check whether CN1[C@@H]2COC[C@H]1C[C@@H](NC(=O)c1cn(-c3cnn(C)c3)c3ccccc13)C2 [Compound 15, trifluoroacetic acid salt] shows IC50 below 0.9 nM
Response: Satisfied

Prompt: Bench note: check whether CN1[C@@H]2COC[C@H]1C[C@@H](NC(=O)c1cn(-c3ccn(C)n3)c3ccccc13)C2 [Compound 17, trifluoroacetic acid salt] shows IC50 below 0.9 nM
Response: Satisfied

Prompt: Bench note: check whether "CN1[C@@H]2COC[C@H]1C[C@@H](OC(=O)c1cn(-c3ccccn3)c3ccccc13)C2" shows IC50 below 0.9 nM
Response: Not satisfied

Prompt: Bench note: check whether "Cn1cc(-n2cc(C(=O)O[C@H]3C[C@H]4COC[C@@H](C3)N4)c3ccccc32)cn1" shows IC50 below 0.9 nM
Response: Satisfied
